Measured values drawn from patent US4041168A for this set.

assay: toxicity (LD50) per os in mice, substantially according to Lichtfield and Wilcoxon; conditions: mouse, in vivo, po
OBSERVATION TYPE: LD50 (mg/kg)
Please give a number only; it is taken to be in mg/kg.

Cn1c(C(C)(C)O)cnc1[N+](=O)[O-] | 730
CC(CO)c1cnc([N+](=O)[O-])n1C (centres unmarked) [drawing 6] | 776
Cn1c(CCO)cnc1[N+](=O)[O-] | 1500
CCCc1cnc([N+](=O)[O-])n1C [reference compound] | 560
CCc1cnc([N+](=O)[O-])n1C [reference compound] | 372
CC(O)Cc1cnc([N+](=O)[O-])n1C (centres unmarked) [drawing 5] | 670
Cn1c(CO)cnc1[N+](=O)[O-] [drawing 3] | 350

Next:
Q: Could you share which LD50 value was measured for Cc1cnc([N+](=O)[O-])n1C ?
Result: 246
